target: human thrombopoietin receptor (c-mpl) (Homo sapiens); construct: expressed in transfected cells; test: Stimulation of proliferation of thrombopoietin-dependent cell line UT7/EPO-mpl (WST-8); format: cell-based; conditions: concentration yielding growth rate corresponding to 50% of growth of UT-7/EPO-mpl in the presence of 10 ng/mL TPO; 4 days incubation, WST-8
pEC50: −log10 of the molar value.
Label rule, in plain words: pEC50 of 8 and up is MET, under 8 is NOT MET.

> print(dat)
                                     smiles    class
1  C/C(=N\NC(=S)Nc1ccc(C(=O)O)cc1)c1csc(-c2ccc3c(c2)CCO3)c1O  NOT MET

Exam item: Entry COC(=O)c1ccc(C(=O)N/N=C(\C)c2csc(-c3ccc4c(c3)CCC4)c2O)cc1 : is its pEC50 no less than 8?
Marked response: NOT MET

Exam item: Entry COC(=O)c1ccc(C(=O)N/N=C(\C)c2csc(-c3ccc4c(c3)CCCC4)c2O)cc1 : is its pEC50 no less than 8?
Marked response: NOT MET

Exam item: Entry C/C(=N\NC(=O)c1ccc(C(=O)NCc2ccc(C(=O)NCCO)cc2)s1)c1csc(-c2ccc3c(c2)CCC3)c1O : is its pEC50 no less than 8?
Marked response: MET

Exam item: Entry C/C(=N\NC(=S)Nc1ccc(C(=O)O)c(Cl)c1)c1csc(-c2ccc3c(c2)CCO3)c1O : is its pEC50 no less than 8?
Marked response: NOT MET

Exam item: Entry C/C(=N\NC(=O)c1ccc(C(=O)NCc2ccncc2)s1)c1nn(C)c(-c2ccc3c(c2)CCC3)c1O : is its pEC50 no less than 8?
Marked response: MET

====

This section presents molecules with their documented pEC50 values.
biological target: human thrombopoietin receptor (c-mpl) (Homo sapiens, UniProt P40238); test: Stimulation of proliferation of thrombopoietin-dependent cell line UT7/EPO-mpl (WST-8); conditions: concentration yielding growth rate corresponding to 50% of growth of UT-7/EPO-mpl in the presence of 10 ng/mL TPO; 4 days incubation, WST-8
Scale explanation: pEC50 corresponds to minus log10 of a concentration expressed in moles per litre.

Consider the following illustrative entries.
> print(dat)
                                   molecule  property.label  numeric.value
1  COC(=O)c1ccc(C(=O)N/N=C(\C)c2csc(-c3ccc4c(c3)CCCC4)c2O)s1 [compound 36]           pEC50           8.02
2  COC(=O)c1ccc(C(=O)N/N=C(\C)c2csc(-c3ccc4c(c3)CCC4)c2O)cc1[N+](=O)[O-] [compound 29]           pEC50           7.89
3  COC(=O)c1ccc(C(=O)N/N=C(\C)c2nn(C)c(-c3ccc4c(c3)CCC4)c2O)cc1 [compound 7]           pEC50           7.37

Exam item: Find the recorded pEC50 belonging to C/C(=N\NC(=S)Nc1ccc(-c2nnn[nH]2)cc1)c1csc(-c2ccc3c(c2)CCC3)c1O [compound 64] and report it.
Marked response: 8.36

====

Target: human thrombopoietin receptor (c-mpl) (Homo sapiens, UniProt P40238)
Sequence (P40238 26-635): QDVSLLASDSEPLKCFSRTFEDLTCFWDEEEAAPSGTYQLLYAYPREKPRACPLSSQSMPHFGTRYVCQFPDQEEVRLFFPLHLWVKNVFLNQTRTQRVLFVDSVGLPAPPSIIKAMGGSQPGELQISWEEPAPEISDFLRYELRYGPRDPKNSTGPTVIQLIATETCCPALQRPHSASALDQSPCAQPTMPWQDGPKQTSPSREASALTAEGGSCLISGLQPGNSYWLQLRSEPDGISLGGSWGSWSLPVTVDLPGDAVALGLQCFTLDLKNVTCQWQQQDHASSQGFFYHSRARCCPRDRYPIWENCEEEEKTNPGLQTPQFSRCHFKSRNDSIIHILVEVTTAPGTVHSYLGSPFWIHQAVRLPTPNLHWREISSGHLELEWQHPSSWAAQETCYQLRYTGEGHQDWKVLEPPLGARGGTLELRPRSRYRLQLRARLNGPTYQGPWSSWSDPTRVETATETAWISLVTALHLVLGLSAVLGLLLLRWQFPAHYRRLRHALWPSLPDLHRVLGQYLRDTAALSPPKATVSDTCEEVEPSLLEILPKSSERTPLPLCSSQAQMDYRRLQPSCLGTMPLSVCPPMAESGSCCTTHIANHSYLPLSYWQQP
Test: Stimulation of proliferation of thrombopoietin-dependent cell line UT7/EPO-mpl (WST-8)
Details: concentration yielding growth rate corresponding to 50% of growth of UT-7/EPO-mpl in the presence of 10 ng/mL TPO; 4 days incubation, WST-8
pEC50: −log10 of the molar value.
Label rule, in plain words: pEC50 of 8 and up is TRUE, under 8 is FALSE.

These solved cases illustrate the format of a correct answer.
> print(dat)
                                     smiles                               measured.on  class
1  C/C(=N\NC(=O)c1ccc(C(=O)O)cc1)c1csc(-c2ccc3c(c2)CCO3)c1O  human thrombopoietin receptor (c-mpl) (Homo sapiens, UniProt P40238)  FALSE
2  COC(=O)c1ccc(C(=O)N/N=C(\C)c2csc(-c3ccc4c(c3)CCC4)c2O)s1  human thrombopoietin receptor (c-mpl) (Homo sapiens, UniProt P40238)  FALSE
3  C/C(=N\NC(=O)c1ccc(C(=O)O)cc1)c1nn(C)c(-c2ccc3c(c2)CCC3)c1O  human thrombopoietin receptor (c-mpl) (Homo sapiens, UniProt P40238)  FALSE

Exam item: Entry C/C(=N\NC(=O)c1ccc(C(=O)O)c([N+](=O)[O-])c1)c1nn(C)c(-c2ccc3c(c2)CCC3)c1O : is its pEC50 no less than 8?
Marked response: TRUE

Exam item: Entry C/C(=N\NC(=S)Nc1cccc(-c2nnn[nH]2)c1)c1csc(-c2ccc3c(c2)CCCC3)c1O : is its pEC50 no less than 8?
Marked response: TRUE

Exam item: Entry C/C(=N\NC(=O)c1ccc(C(=O)O)cc1)c1csc(-c2ccc3c(c2)CCC3)c1O : is its pEC50 no less than 8?
Marked response: TRUE
